# experimentSummary: activity coefficient (dimensionless); of the first substance listed, at infinite dilution; xn = mol fraction of the nth substance listed
# cond: 373 K; 101.3 kPa; Liquid; Open tubular Wall-Coated Column Chromatography; x1 = 0

>  <compound>
CCCCCCC [heptane] + CC(=O)[O-].CCn1cc[n+](C)c1

>  <activity coefficient>
173

$$$$
>  <compound>
CC(C)O [propan-2-ol] + CC(=O)[O-].CCn1cc[n+](C)c1

>  <activity coefficient>
0.15

$$$$
>  <compound>
C[N+](=O)[O-] [nitromethane] + CC(=O)[O-].CCn1cc[n+](C)c1

>  <activity coefficient>
0.46

$$$$
>  <compound>
CCCO [propan-1-ol] + CC(=O)[O-].CCn1cc[n+](C)c1

>  <activity coefficient>
0.1

$$$$
>  <compound>
CCC(C)(C)O [2-methylbutan-2-ol] + CC(=O)[O-].CCn1cc[n+](C)c1

>  <activity coefficient>
0.35

$$$$
>  <compound>
CC(C)(C)O [2-methylpropan-2-ol] + CC(=O)[O-].CCn1cc[n+](C)c1

>  <activity coefficient>
0.27

$$$$
>  <compound>
COCCOC [1,2-dimethoxyethane] + CC(=O)[O-].CCn1cc[n+](C)c1

>  <activity coefficient>
4.51

$$$$

---

# experimentSummary: activity coefficient (dimensionless); of the first substance listed, at infinite dilution; xn = mol fraction of the nth substance listed
# cond: 393 K; 101.3 kPa; Liquid; open tubular wall-coated column chromatography; x1 = 0

>  <compound>
C1COCCO1 [1,4-dioxane] + CC(=O)[O-].CCn1cc[n+](C)c1

>  <activity coefficient>
2.52

$$$$
>  <compound>
c1ccccc1 [benzene] + CC(=O)[O-].CCn1cc[n+](C)c1

>  <activity coefficient>
3.68

$$$$
>  <compound>
C1CCCCC1 [cyclohexane] + CC(=O)[O-].CCn1cc[n+](C)c1

>  <activity coefficient>
30.3

$$$$
>  <compound>
CCOC(C)=O [ethyl acetate] + CC(=O)[O-].CCn1cc[n+](C)c1

>  <activity coefficient>
5.35

$$$$
>  <compound>
C1CCOC1 [tetrahydrofuran] + CC(=O)[O-].CCn1cc[n+](C)c1

>  <activity coefficient>
4.02

$$$$
>  <compound>
Cc1ccccc1 [toluene] + CC(=O)[O-].CCn1cc[n+](C)c1

>  <activity coefficient>
6.13

$$$$
>  <compound>
CC#N [acetonitrile] + CC(=O)[O-].CCn1cc[n+](C)c1

>  <activity coefficient>
0.89

$$$$

---

# experimentSummary: activity coefficient (dimensionless); of the first substance listed, at infinite dilution; xn = mol fraction of the nth substance listed
# cond: 353 K; 101.3 kPa; Liquid; Open tubular Wall-Coated Column Chromatography; x1 = 0
Each entry below carries its recorded activity coefficient.

>  <compound>
C[N+](=O)[O-] [nitromethane] + CC(=O)[O-].CCn1cc[n+](C)c1

>  <activity coefficient>
0.44

$$$$
>  <compound>
CC(C)O [propan-2-ol] + CC(=O)[O-].CCn1cc[n+](C)c1

>  <activity coefficient>
0.13

$$$$
>  <compound>
CCCO [propan-1-ol] + CC(=O)[O-].CCn1cc[n+](C)c1

>  <activity coefficient>
0.09

$$$$
>  <compound>
CCCCCCC [heptane] + CC(=O)[O-].CCn1cc[n+](C)c1

>  <activity coefficient>
157

$$$$
>  <compound>
CCC(C)(C)O [2-methylbutan-2-ol] + CC(=O)[O-].CCn1cc[n+](C)c1

>  <activity coefficient>
0.29

$$$$
>  <compound>
CC(C)(C)O [2-methylpropan-2-ol] + CC(=O)[O-].CCn1cc[n+](C)c1

>  <activity coefficient>
0.22

$$$$
>  <compound>
COCCOC [1,2-dimethoxyethane] + CC(=O)[O-].CCn1cc[n+](C)c1

>  <activity coefficient>
4.11

$$$$
